Each recorded value in this set is attributed to patent US20260138978A1.

Target: human mAChRM1 (Homo sapiens, UniProt P11229)
Construct: host or cells: CHO-K1
Sequence (P11229 whole entry): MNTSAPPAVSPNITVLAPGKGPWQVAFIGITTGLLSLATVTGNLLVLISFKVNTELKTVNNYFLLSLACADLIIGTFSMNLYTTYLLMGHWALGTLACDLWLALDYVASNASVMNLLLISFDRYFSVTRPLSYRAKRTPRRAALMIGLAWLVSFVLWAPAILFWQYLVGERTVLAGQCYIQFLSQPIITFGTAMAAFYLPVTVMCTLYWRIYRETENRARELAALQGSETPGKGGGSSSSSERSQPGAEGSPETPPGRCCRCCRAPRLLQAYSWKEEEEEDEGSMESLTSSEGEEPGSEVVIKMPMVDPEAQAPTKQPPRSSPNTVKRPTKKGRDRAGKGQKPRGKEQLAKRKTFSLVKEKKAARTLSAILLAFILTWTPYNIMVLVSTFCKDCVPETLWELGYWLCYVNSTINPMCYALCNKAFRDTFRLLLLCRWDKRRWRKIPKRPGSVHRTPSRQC
Assay: mAChR M1 cell-based functional assay (calcium mobilization), positive allosteric modulator activity: increase in the EC20 acetylcholine response
Conditions: PAM mode
Experimental: Chinese hamster ovary (CHO-K1) cells stably expressing rat (r)M1 were purchased from the American Type Culture Collection and cultured according to their indicated protocol. […] Calcium flux was measured using the Functional Drug Screening System (FDSS) 6000 (Hamamatsu Corporation, Tokyo, Japan) as an increase in the fluorescent static ratio. […] Agonist activity was analyzed as a concentration-dependent increase in calcium mobilization upon compound addition. […]
PROPERTY_MEASURED: Emax (%)

COMPOUND: Cn1cc2c(-c3cc(F)c(CN4Cc5ncccc5C4=O)c(F)c3)cc(C(C)(C)O)cc2n1
ENDPOINT_UNIT: %
Emax: 81
//
COMPOUND: Cn1cc2c(-c3cc(F)c(CN4Cc5ncccc5C4=O)c(C(F)(F)F)c3)ccc(C(C)(C)O)c2n1
ENDPOINT_UNIT: %
Emax: 80
//
COMPOUND: CCC(C)(O)c1ccc(-c2cc(F)c(CN3Cc4ncccc4C3=O)c(F)c2)c2cn(C)nc12 (stereo not drawn)
ENDPOINT_UNIT: %
Emax: 80

---

molecular target: human mAChRM1 (Homo sapiens); construct: host or cells: CHO-K1; experiment: mAChR M1 cell-based functional assay (calcium mobilization), positive allosteric modulator activity: increase in the EC20 acetylcholine response; conditions: PAM mode
PROPERTY_MEASURED: Emax (%)

MOLECULE: Cn1cc2c(-c3ccc(CN4Cc5ncccc5C4=O)c(F)c3)ccc(C(C)(C)O)c2n1
ENDPOINT_UNIT: %
QUANTITATIVE_READOUT: 69

MOLECULE: Cn1cc2c(-c3ccc(CN4Cc5cccc(F)c5C4=O)c(F)c3F)ccc(C(C)(C)O)c2n1
ENDPOINT_UNIT: %
QUANTITATIVE_READOUT: 71

MOLECULE: CC(C)(O)c1ccc(-c2cc(F)c(CN3Cc4nccnc4C3=O)c(F)c2)cc1
ENDPOINT_UNIT: %
QUANTITATIVE_READOUT: 60

MOLECULE: CC(C)(O)c1ccc(-c2cc(F)c(CN3Cc4ncccc4C3=O)c(F)c2)c2ccccc12
ENDPOINT_UNIT: %
QUANTITATIVE_READOUT: 64

MOLECULE: Cc1cc(-c2cc(C(C)(C)O)c3cn(C)nc3c2)cc(F)c1CN1Cc2ncccc2C1=O
ENDPOINT_UNIT: %
QUANTITATIVE_READOUT: 47

MOLECULE: Cn1cc2c(-c3cc(F)c(CN4Cc5ncccc5C4=O)c(F)c3)ccc(C(C)(O)CS(C)(=O)=O)c2n1 (stereo not drawn)
ENDPOINT_UNIT: %
QUANTITATIVE_READOUT: 87

MOLECULE: CC(C)(O)c1ccc(-c2cc(F)c(CN3Cc4ccncc4C3=O)c(F)c2)cc1
ENDPOINT_UNIT: %
QUANTITATIVE_READOUT: 79

MOLECULE: [2H]C1([2H])c2ncccc2C(=O)N1Cc1c(Cl)cc(-c2ccc(C(C)(C)O)c3nn(C)cc23)cc1C1CC1
ENDPOINT_UNIT: %
QUANTITATIVE_READOUT: 79

MOLECULE: Cn1cc2c(-c3ncc(CN4Cc5ncccc5C4=O)cn3)ccc(C(C)(C)O)c2n1
ENDPOINT_UNIT: %
QUANTITATIVE_READOUT: 47

MOLECULE: Cn1cc(-c2ccc(CN3Cc4ncccc4C3=O)cc2)c(C(C)(C)O)n1
ENDPOINT_UNIT: %
QUANTITATIVE_READOUT: 48

MOLECULE: Cc1cc(-c2cc(C(C)(C)O)cc3nn[nH]c23)cc(F)c1CN1Cc2ncccc2C1=O
ENDPOINT_UNIT: %
QUANTITATIVE_READOUT: 52

MOLECULE: Cn1cc2c(-c3cc(F)c(CN4Cc5ncncc5C4=O)c(F)c3)ccc(C(C)(C)O)c2n1
ENDPOINT_UNIT: %
QUANTITATIVE_READOUT: 87

MOLECULE: Cn1cc2c(-c3cc(F)c(CN4Cc5ncccc5C4=O)c(C4CCCC4)c3)ccc(C(C)(C)O)c2n1
ENDPOINT_UNIT: %
QUANTITATIVE_READOUT: 62

MOLECULE: CC(C)(O)c1ccc(-c2cc(F)c(CN3Cc4cccnc4C3=O)c(F)c2)cc1
ENDPOINT_UNIT: %
QUANTITATIVE_READOUT: 68

MOLECULE: [2H]C1([2H])c2ncccc2C(=O)N1Cc1ccc(-c2ccc(C(C)(C)O)c3nn(C)cc23)c(F)c1F
ENDPOINT_UNIT: %
QUANTITATIVE_READOUT: 88

MOLECULE: Cn1cc2c(-c3ccc(CN4Cc5ncccc5C4=O)cc3)ccc(C(C)(C)O)c2n1
ENDPOINT_UNIT: %
QUANTITATIVE_READOUT: 67

MOLECULE: Cn1cc2cc(-c3cc(F)c(CN4Cc5ncccc5C4=O)c(Cl)c3)cc(C(C)(C)O)c2n1
ENDPOINT_UNIT: %
QUANTITATIVE_READOUT: 67

MOLECULE: Cn1cc2c(-c3cc(F)c(CN4Cc5ncccc5C4=O)c(F)c3)ccc(C3(O)CCCC3)c2n1
ENDPOINT_UNIT: %
QUANTITATIVE_READOUT: 72

MOLECULE: CCC(O)(c1ccc(-c2cc(F)c(CN3Cc4ncccc4C3=O)c(F)c2)c2cn(C)nc12)C(F)(F)F (stereo not drawn)
ENDPOINT_UNIT: %
QUANTITATIVE_READOUT: 71

MOLECULE: Cc1cc(-c2ccc(C(C)(C)O)cc2)ccc1CN1Cc2ncccc2C1=O
ENDPOINT_UNIT: %
QUANTITATIVE_READOUT: 70

MOLECULE: Cn1cc2c(-c3cc(F)c(CN4Cc5ncccc5C4=O)c(N4CCC4)c3)ccc(C(C)(C)O)c2n1
ENDPOINT_UNIT: %
QUANTITATIVE_READOUT: 81

MOLECULE: [2H]C1([2H])c2ncccc2C(=O)N1Cc1c(F)cc(-c2ccc(C(C)(C)O)c3nn(C([2H])([2H])[2H])cc23)cc1F
ENDPOINT_UNIT: %
QUANTITATIVE_READOUT: 62

MOLECULE: COc1cc(-c2ccc(C(C)(C)O)cc2)cc(F)c1CN1Cc2cccnc2C1=O
ENDPOINT_UNIT: %
QUANTITATIVE_READOUT: 58

MOLECULE: CC(C)(O)c1ccc(-c2ccc(CN3Cc4ncccc4C3=O)cc2)cc1
ENDPOINT_UNIT: %
QUANTITATIVE_READOUT: 65
